System: MOLT-4 leukemia
Assay: NCI-60 one-dose screen, 48 h
Conditions: 10 µM unless noted
Procedure: Growth inhibition of the MOLT-4 human tumor cell line is measured as a screen for anti-cancer activity. Cells are grown in 96 well plates and exposed to the test compound for 48 hours. Compounds are tested at a single concentration, which is 10^-5 M for most compounds. The reported endpoint is percent growth (GI% or GIPRCNT), where numbers from 0 - 100% represent growth inhibition, and numbers from -100% - 0 represent cell death. For example, a value of 40 represents 60% growth inhibition. […]
This is part of a sample that, as a whole, favours compounds with a hit. Of some 83,000 tested, about 20% had one in any assay. Active and inactive are the calls of the source. Rule for the calls: active = growth percent below 10; inactive = the rest.
Permitted responses: T = active, F = inactive

Examples from the recorded data:
CCSc1nc(-c2ccc(F)cc2)c(C#N)c(=O)[nH]1 :: F
CC(=O)OC1Oc2cc(C)c(C)cc2-c2oc(=O)c(-c3ccccc3)cc21 (stereo unspecified) :: T
CN(C)CCCN=c1cc2c(=O)n(CCCN(C)C)c(=O)c3c(NCCCN(C)C)cc4c(O)n(CCCN(C)C)c(=O)c1c4c3-2 :: F
O=C(CNc1ccc2c(c1)C(=O)c1ccccc1C2=O)Nc1ccc2c(c1)C(=O)c1ccccc1C2=O :: T

Okay, now this compound:
// outcome(item) with item = C[C@]12CC[C@H](O)CC1=CC[C@@H]1[C@@H]2CC[C@]2(C)C(c3cccnc3)=CC[C@@H]12
F

---

tested on: HCT-116 colon; assay: NCI-60 one-dose screen, 48 h; details: 10 µM unless noted
About 83,000 compounds went through this panel and 20% of them were active in at least one assay; those are over-represented in the sample as a whole. Calls of active or inactive are those of the source. The calls were made as follows: active = growth percent below 10; inactive = the rest.
Write down one outcome, taken from active, inactive

Example results:
N/C(=N\C(N)=N\c1nc2ccccc2s1)c1ccnc(Cl)c1 :: inactive
C/C(=C\CCc1ccoc1)CC/C=C(\C)CCCN1CCSCC1 :: inactive
COc1cc(-c2n[nH]nc2-c2ccccn2)cc(OC)c1OC :: inactive
O=C(Nc1nc2c(C(F)(F)F)cccc2s1)c1cc(Cl)ccc1O :: active
O=C1/C(=C/c2ccccc2O)C(=S)SN1Cc1ccco1 :: inactive

Outcome? O=C(CNC(=O)c1cccc2ccccc12)Nc1ccccc1Oc1ccc(O)cc1
inactive

How was O=C(C(=O)c1cc(Br)ccc1O)c1cc(Br)ccc1O classified in this test?
inactive

Answer briefly: the call reported for N#Cc1c(-c2ccccc2)cc(-c2ccccc2)n(CCCCCCC(=O)O)c1=O in this assay.
inactive

---

test system: HT29 colon; experiment: NCI-60 one-dose screen, 48 h; conditions: 10 µM unless noted
About 83,000 compounds went through this panel and 20% of them were active in at least one assay; those are over-represented in the sample as a whole. Active and inactive are the calls of the source. How the source made its calls: active means growth percent below 10; inactive means the rest.
Please state which outcome applies, choosing from true (active), false (inactive)

Worked set:
Cc1ccc(/C=C(/C#N)n2nnc3ncccc32)cc1 :: true
O=C(CN1CCN(c2ccc(Cl)cc2)CC1)N1CCN(c2nnc(-c3ccc(Cl)cc3)c(-c3ccc(Cl)cc3)n2)CC1 :: false
Cc1cc(C)nc(NS(=O)(=O)c2ccc(Nc3nc4nc(SCc5ccccc5)nc(-c5ccc(O)cc5)c4c(=O)[nH]3)cc2)n1 :: false
CCCCNCCCN(CCCC)CCCNCCCC :: false

Attention now turns to another entry.
For CSc1nc2nc3c(c(-c4ccc(C)cc4)c2c(=O)[nH]1)CN(C)C/C3=C\c1ccc(C)cc1 , what call appears in the results of this test?
false

---

tested on: NCI-H460 lung; experiment: NCI-60 one-dose screen, 48 h (100 = growth as untreated, 0 = no growth, -100 = all killed); conditions: 10 µM unless noted
Compounds without any hit were thinned out: in the full panel of roughly 83,000, 20% have a hit. Calls of active or inactive are those of the source. Rule for the calls: active = growth percent below 10; inactive = the rest.
Exercise: state measured growth for each of the compounds provided.

N#Cc1c(-c2ccccc2)cc(-c2ccccc2)n(CC(=O)O)c1=O :: 40.7% (inactive)
C/C(=C\CCc1ccoc1)CC/C=C(\C)CCCC1COC(=O)C1 (stereo unspecified) :: 98.8% (inactive)

# map each compound to its growth
1. COc1ccc2c(c1)CC[C@@H]1[C@@H]2CC[C@]2(C)[C@@H](O)C(=O)C[C@@H]12
2. Cc1cccc2nnc(-c3ccccc3)n12
3. O=C1/C(=C/c2ccc(F)cc2)Cc2ccccc21
4. O=C(CNC(=O)c1cccc2ccccc12)Nc1ccccc1Cc1ccccc1

102% (inactive)
108% (inactive)
103% (inactive)
17.9% [5 µM] (inactive)

---

Tested on: SK-MEL-5 melanoma
Test: NCI-60 one-dose screen, 48 h
Details: 10 µM unless noted
Protocol: Growth inhibition of the SK-MEL-5 human tumor cell line is measured as a screen for anti-cancer activity. Cells are grown in 96 well plates and exposed to the test compound for 48 hours. Compounds are tested at a single concentration, which is 10^-5 M for most compounds. The reported endpoint is percent growth (GI% or GIPRCNT), where numbers from 0 - 100% represent growth inhibition, and numbers from -100% - 0 represent cell death. For example, a value of 40 represents 60% growth inhibition. […]
The panel holds about 83,000 compounds, 20% with a hit somewhere; the sample as a whole holds those more often. Activity calls are given as the source filed them. Rule for the calls: active = growth percent below 10; inactive = the rest.
Valid outcomes are listed here; reply with one: active, inactive

Solved cases below.
O=C1NCCc2c1noc2-c1ccccc1 :: inactive
Cc1sc2nc(N3CCCCC3)[nH]c(=O)c2c1C :: inactive
O=C(Nc1cccc(Cl)c1)Nc1cccc(Cl)c1 :: inactive
COc1ccc(N2CCN(CC(=O)N3CCN(c4nnc(-c5ccc(Cl)cc5)c(-c5ccc(Cl)cc5)n4)CC3)CC2)cc1 :: inactive
C[C@]12CCC(=O)C=C1CC[C@H]1[C@@H]3C[C@@H](O)[C@](O)(C(=O)CO)[C@@]3(C)C[C@H](O)[C@@]12F :: inactive

Now examine the next entry.
Record request — test call for CN(C)c1ccc(-c2nc3ncc(Br)cc3o2)cc1
inactive

---

tested on: KM12 colon; experiment: NCI-60 one-dose screen, 48 h; details: 10 µM unless noted
Compounds without any hit were thinned out: in the full panel of roughly 83,000, 20% have a hit. Activity calls are given as the source filed them. Rule for the calls: active = growth percent below 10; inactive = the rest.
Respond only with the outcome that fits, drawn from Yes (active), No (inactive)

Here's what some known entries look like.
CCCCCc1c(C)[nH]c(/C=C2\N=C(c3ccc[nH]3)C=C2Oc2ccc(Cl)cc2)c1C :: Yes
COP(=O)(OC)C(c1ccc(O)cc1)(c1ccc(O)cc1)c1ccc(O)cc1 :: No
O=C(CNC(=O)c1cccc2ccccc12)Nc1ccccc1Oc1cccc(O)c1 :: No

Any idea what this test logged for CCNCCCn1c2c(c3ccc(F)cc3c1=O)C(=O)c1cc(OC)cnc1-2 ?
Yes

Which outcome did this test record for the molecule COc1cnc2c(c1)C(=O)c1c-2n(CCCN2CCC(O)CC2)c(=O)c2cc(F)ccc12 ?
Yes

Test call, this molecule: CN1CCN(CCCCCN=c2cc3c(=O)n(CCCCCN4CCN(C)CC4)c(=O)c4c(NCCCCCN5CCN(C)CC5)cc5c(O)n(CCCCCN6CCN(C)CC6)c(=O)c2c5c4-3)CC1
Yes

Hi, sorry to bother you, what did the test record for COc1cnc2c(c1)C(=O)c1c-2n(CCCN2CCOCC2)c(=O)c2cc(F)ccc12 ?
Yes

Name the outcome recorded for COc1ccc(CNC(=O)c2c(C)n([O-])c3cc(F)c(F)cc3[n+]2=O)cc1 in the assay.
No

Status in this test for Nc1nc(NC2CC2)c2ncn(C3C=CC(CO)C3)c2n1 (centres undefined) ?
No

---

Kindly supply the reported growth values for the records listed here.
tested on: TK-10 renal; assay: NCI-60 one-dose screen, 48 h (100 = growth as untreated, 0 = no growth, -100 = all killed); details: 10 µM unless noted
This is part of a sample that, as a whole, favours compounds with a hit. Of some 83,000 tested, about 20% had one in any assay.
Give bare numbers, in %.

CC1CN(C2CCCCC2)C(=O)NC1=O (stereo unspecified) :: 101
N#Cc1c(-c2ccccc2)cc(-c2ccccc2)n(CCCC(=O)O)c1=O :: 124
NC(=O)c1cc(Br)cc(Br)c1NS(=O)(=O)c1ccccc1 :: 130
CCCCCCCCN(CCO)CCCCCCCC :: 109
Nc1ccc2c(c1)Cc1cc(Cl)c(Cl)cc1-2 :: 101

Now for another entry.
Reported growth for COC(=O)C1CCN(S(=O)(=O)c2ccc(-c3ccccc3)cc2)CC1 : what is it?
122

---

Test system: NCI-H23 lung
Test: NCI-60 one-dose screen, 48 h
Conditions: 10 µM unless noted
Method: Growth inhibition of the NCI-H23 human Non-Small Cell Lung tumor cell line is measured as a screen for anti-cancer activity. Cells are grown in 96 well plates and exposed to the test compound for 48 hours. Compounds are tested at a single concentration, which is 10^-5 M for most compounds. The reported endpoint is percent growth (GI% or GIPRCNT), where numbers from 0 - 100% represent growth inhibition, and numbers from -100% - 0 represent cell death. […]
About 83,000 compounds went through this panel and 20% of them were active in at least one assay; those are over-represented in the sample as a whole. Active and inactive are the calls of the source. Rule for the calls: active = growth percent below 10; inactive = the rest.
Pick one and only one: class 1 for active, class 0 for inactive

Which outcome was entered for the compound O=Cc1ccccc1C(=O)O in this test?
class 0
